Tested on: ATP;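 further: ATP exposure 15 min at 22 °C before imaging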
Test: switch fluorescence ratio, 500 uM ATP over buffer (Cy3 cluster intensity, sum of 5 cycles each) (fold (ratio)); higher = stronger signal-on switching upon ATP binding; sequences stand for … in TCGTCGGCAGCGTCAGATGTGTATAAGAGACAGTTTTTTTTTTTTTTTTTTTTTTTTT…TC
Conditions: aptamer strand: ATP DNA aptamer (quencher-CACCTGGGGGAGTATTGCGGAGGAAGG + anchor), 100 nM annealed; ATP concentration: 500 uM
quantity kind: switch fluorescence ratio
Number only, no unit.

Sample records with switch fluorescence ratio:
- sequence record: "TTTTCACGTT"
  target desc: "ATP"
  measurement: 1.07
- sequence record: "TTTGTTTGAT"
  target desc: "ATP"
  measurement: 0.999
- sequence record: "TTGCGGGGG"
  target desc: "ATP"
  measurement: 1.01
- sequence record: "TGGGGTAGCT"
  target desc: "ATP"
  measurement: 0.997
- sequence record: "GATTATGCTC"
  target desc: "ATP"
  measurement: 1.01
- sequence record: "TATTCACAAG"
  target desc: "ATP"
  measurement: 1.02

# input Value wanted: switch fluorescence ratio (ATP) of entry `TTACCTAGAG`
# output 1.04

# input Value wanted: switch fluorescence ratio (ATP) of entry `GGGGGAGATA`
# output 1

# input Value wanted: switch fluorescence ratio (ATP) of entry `GACGGGGAAT`
# output 0.979

# input Value wanted: switch fluorescence ratio (ATP) of entry `CGAAACTTTG`
# output 0.974

# input Value wanted: switch fluorescence ratio (ATP) of entry `TATTTGAAGG`
# output 0.986

# input Value wanted: switch fluorescence ratio (ATP) of entry `TTTGCGGAAT`
# output 1.05

# input Value wanted: switch fluorescence ratio (ATP) of entry `GTCGGAGTCA`
# output 1

###

Test system: ATP;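 further: ATP exposure 15 min at 22 °C before imaging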
Experiment: switch fluorescence ratio, 500 uM ATP over buffer (Cy3 cluster intensity, sum of 5 cycles each) (fold (ratio)); higher = stronger signal-on switching upon ATP binding; sequences stand for … in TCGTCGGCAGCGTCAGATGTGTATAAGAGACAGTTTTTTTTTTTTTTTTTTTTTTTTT…TC
Details: aptamer strand: ATP DNA aptamer (quencher-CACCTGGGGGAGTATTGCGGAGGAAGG + anchor), 100 nM annealed; ATP concentration: 500 uM
quantity kind: switch fluorescence ratio
Number only, no unit.

- sequence record: "AGCGTATGTG"
  measurement: 1.02
- sequence record: "TTTTTCTGGT"
  measurement: 1.01
- sequence record: "CGGGGGGATT"
  measurement: 0.997
- sequence record: "TACTTTGGGA"
  measurement: 0.98
- sequence record: "AAGCGAGTTC"
  measurement: 0.998

# input Bench note: what switch fluorescence ratio did `AAGAGTATTG` show?
# output 1

# input Bench note: what switch fluorescence ratio did `ATAGCGGTCG` show?
# output 1.01

# input Bench note: what switch fluorescence ratio did `CGATTTGCCT` show?
# output 0.981

# input Bench note: what switch fluorescence ratio did `TGAATAGGGA` show?
# output 0.982

###

Recorded switch fluorescence ratio values for a group of sequences are listed next.
System: ATP;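 further: ATP exposure 15 min at 22 °C before imaging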
Test: switch fluorescence ratio, 500 uM ATP over buffer (Cy3 cluster intensity, sum of 5 cycles each) (fold (ratio)); higher = stronger signal-on switching upon ATP binding; sequences stand for … in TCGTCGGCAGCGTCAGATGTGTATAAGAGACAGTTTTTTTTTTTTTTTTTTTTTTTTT…TC
Conditions: aptamer strand: ATP DNA aptamer (quencher-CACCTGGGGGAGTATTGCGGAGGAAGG + anchor), 100 nM annealed; ATP concentration: 500 uM
Number only, no unit.

Sample records with switch fluorescence ratio:
- sequence record: "AGTCCGGAGT"
  measurement: 1.05
- sequence record: "TTAGGTAATA"
  measurement: 1
- sequence record: "TGGGTAGTAT"
  measurement: 0.977
- sequence record: "CGGGCTTATT"
  measurement: 0.988
- sequence record: "TTGGGCCTGG"
  measurement: 0.981

Turning now to a further record.
# input Bench note: what switch fluorescence ratio did `TACAAGTAT` show?
# output 0.997

###

Recorded switch fluorescence ratio values for a group of sequences are listed next.
Test system: ATP;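 further: ATP exposure 15 min at 22 °C before imaging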
Assay: switch fluorescence ratio, 500 uM ATP over buffer (Cy3 cluster intensity, sum of 5 cycles each) (fold (ratio)); higher = stronger signal-on switching upon ATP binding; sequences stand for … in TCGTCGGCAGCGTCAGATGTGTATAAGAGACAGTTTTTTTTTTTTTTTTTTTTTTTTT…TC
Conditions: aptamer strand: ATP DNA aptamer (quencher-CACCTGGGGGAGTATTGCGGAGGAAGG + anchor), 100 nM annealed; ATP concentration: 500 uM
Number only, no unit.

Sample records with switch fluorescence ratio:
- sequence record: "TCAATAGTAC"
  switch fluorescence ratio: 1.08
- sequence record: "ACTGGAGTTT"
  switch fluorescence ratio: 1.01

# input Bench note: what switch fluorescence ratio did `TTGATTGGTC` show?
# output 1.05

# input Bench note: what switch fluorescence ratio did `TTTTGTTAGG` show?
# output 0.98

# input Bench note: what switch fluorescence ratio did `AACTTTTTCG` show?
# output 1.01

# input Bench note: what switch fluorescence ratio did `TGATTCGTTC` show?
# output 1.04

# input Bench note: what switch fluorescence ratio did `GTGGGCGCCG` show?
# output 0.987

###

Test system: ATP;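 further: ATP exposure 15 min at 22 °C before imaging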
Assay: switch fluorescence ratio, 500 uM ATP over buffer (Cy3 cluster intensity, sum of 5 cycles each) (fold (ratio)); higher = stronger signal-on switching upon ATP binding; sequences stand for … in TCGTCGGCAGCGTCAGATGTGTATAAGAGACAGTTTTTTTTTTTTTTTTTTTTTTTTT…TC
Details: aptamer strand: ATP DNA aptamer (quencher-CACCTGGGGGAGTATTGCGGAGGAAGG + anchor), 100 nM annealed; ATP concentration: 500 uM
quantity kind: switch fluorescence ratio
Number only, no unit.

Sample records with switch fluorescence ratio:
- sequence record: "TGTAACCTTT"
  switch fluorescence ratio: 1.04
- sequence record: "GTTTCTTAGA"
  switch fluorescence ratio: 0.978

# input Bench note: what switch fluorescence ratio did `TCGGGTCATG` show?
# output 1.04

# input Bench note: what switch fluorescence ratio did `CAGGGGCTTT` show?
# output 1.04

# input Bench note: what switch fluorescence ratio did `GAAGGGGGTA` show?
# output 0.996

# input Bench note: what switch fluorescence ratio did `GTAGTGAGGA` show?
# output 1.02

# input Bench note: what switch fluorescence ratio did `TGGGTGATAT` show?
# output 0.989

# input Bench note: what switch fluorescence ratio did `CTTAGGGTTG` show?
# output 0.999

# input Bench note: what switch fluorescence ratio did `GGGTCTGGTG` show?
# output 1.04

###

Recorded switch fluorescence ratio values for a group of sequences are listed next.
Tested on: ATP;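 further: ATP exposure 15 min at 22 °C before imaging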
Assay: switch fluorescence ratio, 500 uM ATP over buffer (Cy3 cluster intensity, sum of 5 cycles each) (fold (ratio)); higher = stronger signal-on switching upon ATP binding; sequences stand for … in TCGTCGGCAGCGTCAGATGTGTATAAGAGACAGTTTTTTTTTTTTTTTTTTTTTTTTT…TC
Conditions: aptamer strand: ATP DNA aptamer (quencher-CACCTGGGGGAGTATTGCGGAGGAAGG + anchor), 100 nM annealed; ATP concentration: 500 uM
Number only, no unit.

Sample records with switch fluorescence ratio:
- sequence record: "ATGTGTTAGC"
  measurement: 0.999
- sequence record: "CGCGGGGGTG"
  measurement: 1.03
- sequence record: "GCGAAGGTCA"
  measurement: 1.01

# input Bench note: what switch fluorescence ratio did `TCTGGGGCGC` show?
# output 0.984

Measured values drawn from the supplement of paper PMC10126150 for this set.
